# Target system: ERK2 (Rattus norvegicus, UniProt P63086)
# Construct: His; host or cells: E. coli BL21(DE3) pLysS
# Sequence (P63086 whole entry): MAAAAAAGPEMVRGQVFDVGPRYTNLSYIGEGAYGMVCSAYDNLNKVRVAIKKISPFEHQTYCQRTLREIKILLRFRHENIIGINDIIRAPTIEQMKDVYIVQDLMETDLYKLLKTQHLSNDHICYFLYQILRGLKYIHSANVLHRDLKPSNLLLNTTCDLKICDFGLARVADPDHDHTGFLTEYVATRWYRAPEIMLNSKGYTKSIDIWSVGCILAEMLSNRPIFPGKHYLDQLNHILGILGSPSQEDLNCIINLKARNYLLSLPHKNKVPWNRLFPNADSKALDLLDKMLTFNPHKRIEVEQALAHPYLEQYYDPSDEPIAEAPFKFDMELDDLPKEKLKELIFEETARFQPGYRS
# Experiment notes: BLI binding of biotinylated NOS3 peptides to ERK2
# Study conditions: BLI, inactive (unphosphorylated) ERK2 31-1000 nM, biotinylated peptide ligand, 25 °C, PBS, 10% glycerol, 0.005% tween, 1 mM DTT; global one-state fit
Where no end group is shown, it is not given here.
Result type: pKd
Friendly reminder that pKd comes from taking -log10 of the concentration in mol/L.

# pKd of YKIRFNSISCSDPLVSSWRRKRKESSNTDSA [AI] = 6.77

These entries and their values trace back to paper PMC9063426.
